# TARGET SYSTEM: GLP-1 receptor (GPA1/Gαi chimera) (Homo sapiens, UniProt P43220)
# Sequence (P43220 24-463, change not shown): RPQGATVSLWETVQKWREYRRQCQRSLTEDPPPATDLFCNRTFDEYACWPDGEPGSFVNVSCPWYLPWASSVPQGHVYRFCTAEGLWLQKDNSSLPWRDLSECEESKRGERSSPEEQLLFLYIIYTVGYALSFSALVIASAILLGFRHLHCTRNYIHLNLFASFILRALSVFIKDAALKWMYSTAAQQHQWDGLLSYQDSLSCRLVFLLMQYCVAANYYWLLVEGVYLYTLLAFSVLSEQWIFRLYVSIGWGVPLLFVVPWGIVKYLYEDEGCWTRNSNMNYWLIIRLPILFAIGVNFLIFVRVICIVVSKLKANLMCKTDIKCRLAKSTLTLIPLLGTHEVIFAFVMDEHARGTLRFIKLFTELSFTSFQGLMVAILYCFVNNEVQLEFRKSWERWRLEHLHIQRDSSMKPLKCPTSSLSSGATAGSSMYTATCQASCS
# TEST PROTOCOL: Yeast growth assay, GPA1/Gαi chimera strain expressing the GLP-1 receptor
# Format: cell-based
# CONDITION NOTES: pEC50 (GLP-1 receptor, GPA1/Gαi), non-peptide agonists, yeast, 20 h; three-parameter logistic fit; mean ± SEM, n = 5; SEM
PARAMETER MEASURED: pEC50
// pEC50 here means minus log10 of the molar concentration (mol/L)

Enquiry: Please give measured pEC50 of the following entry: CC[S+]([O-])c1nc(-c2cccc(OCc3ccccc3)c2)cc(C(F)(F)F)n1 (stereo not shown) [BETP]
Return: 7.80

====

# TARGET SYSTEM: GLP-1 receptor (GPA1/Gαi chimera) (Homo sapiens, UniProt P43220)
# TEST PROTOCOL: Yeast growth assay, GPA1/Gαi chimera strain expressing the GLP-1 receptor
# Format: cell-based
# CONDITION NOTES: value quoted in running text; read-out: EC50 (yeast, GPA1/Gαi)
PARAMETER MEASURED: EC50 (nM)
Express your answer in nM, writing the number without its unit.

Enquiry: Please give measured EC50 of the following entry: CC[S+]([O-])c1nc(-c2cccc(OCc3ccccc3)c2)cc(C(F)(F)F)n1 (stereo not shown)
Return: 15

Every entry's value here was drawn from paper PMC4128063.
